targetOrTestSystem: Isocitrate dehydrogenase [NADP] cytoplasmic (Homo sapiens)
assayComment: Binding affinity to recombinant IDH1 R132H mutant (unknown origin) expressed in Escherichia coli BL21(DE3) pLysS cells assessed as dissociation constant by ITC assay
Sequence (O75874 2-414 R132H limits assumed): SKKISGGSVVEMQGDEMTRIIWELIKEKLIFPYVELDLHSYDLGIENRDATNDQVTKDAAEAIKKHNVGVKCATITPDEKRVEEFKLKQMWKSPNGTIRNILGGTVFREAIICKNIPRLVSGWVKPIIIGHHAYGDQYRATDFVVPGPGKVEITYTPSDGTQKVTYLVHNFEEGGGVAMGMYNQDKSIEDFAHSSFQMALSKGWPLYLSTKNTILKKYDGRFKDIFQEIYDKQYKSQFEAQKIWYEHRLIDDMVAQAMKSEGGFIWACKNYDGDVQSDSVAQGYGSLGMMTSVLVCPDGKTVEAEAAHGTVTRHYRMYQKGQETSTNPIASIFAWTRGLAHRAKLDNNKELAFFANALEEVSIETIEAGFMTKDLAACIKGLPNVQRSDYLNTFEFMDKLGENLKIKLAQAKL
valueKind: Kd

Need Kd of CC(=O)N1CCN(Cc2ccc([C@H](C)Nc3nccc(N4C(=O)OC[C@@H]4C(C)C)n3)cc2)CC1 [US8957068, 556] , thanks.
> 400 µM

----------
targetOrTestSystem: Isocitrate dehydrogenase [NADP] cytoplasmic (Homo sapiens)
assayComment: Inhibition of recombinant IDH1 R132H mutant (unknown origin) expressed in Escherichia coli BL21(DE3) pLysS cells using 2OG as substrate assessed as 2OG conversion to 2HG incubated for 60 mins in presence of NADPH by spectrophotometric analysis
valueKind: pIC50
Friendly reminder that pIC50 comes from taking -log10 of the concentration in mol/L.

Give Isocitrate dehydrogenase [NADP] cytoplasmic (Homo sapiens) pIC50 for CC(=O)N1CCN(Cc2ccc([C@H](C)Nc3nccc(N4C(=O)OC[C@@H]4C(C)C)n3)cc2)CC1 [US8957068, 556]
8.09

----------
targetOrTestSystem: Isocitrate dehydrogenase [NADP] cytoplasmic (Homo sapiens)
assayComment: Binding affinity to human recombinant IDH1 R132H mutant expressed in Escherichia coli BL21(DE3) pLysS cells assessed as dissociation constant by non-denaturing mass spectroscopic analysis
valueKind: Kd
Answer format: value, then unit.

Need Kd of CC(=O)N1CCN(Cc2ccc([C@H](C)Nc3nccc(N4C(=O)OC[C@@H]4C(C)C)n3)cc2)CC1 , thanks.
142 µM

----------
targetOrTestSystem: Isocitrate dehydrogenase [NADP] cytoplasmic (Homo sapiens, UniProt O75874)
assayComment: Inhibition of recombinant wildtype IDH1 (unknown origin) expressed in Escherichia coli BL21(DE3) pLysS cells using DL-isocitrste as substrate assessed as DL-isocitrate conversion to 2OG incubated for 60 mins in presence of NADPH by spectrophotometric analysis
Sequence (O75874 whole entry): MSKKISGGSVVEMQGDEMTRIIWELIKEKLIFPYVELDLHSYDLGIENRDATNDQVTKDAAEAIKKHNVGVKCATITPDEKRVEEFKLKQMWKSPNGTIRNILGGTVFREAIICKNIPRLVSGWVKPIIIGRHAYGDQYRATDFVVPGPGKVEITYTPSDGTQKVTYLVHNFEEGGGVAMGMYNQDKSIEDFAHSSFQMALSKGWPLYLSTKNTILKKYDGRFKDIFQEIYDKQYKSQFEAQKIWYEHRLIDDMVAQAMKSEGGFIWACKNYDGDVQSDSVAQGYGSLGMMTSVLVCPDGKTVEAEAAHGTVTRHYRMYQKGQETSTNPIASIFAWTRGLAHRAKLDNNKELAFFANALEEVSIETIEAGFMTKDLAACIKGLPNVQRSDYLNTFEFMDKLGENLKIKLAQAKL
valueKind: pIC50
Friendly reminder that pIC50 comes from taking -log10 of the concentration in mol/L.

Need pIC50 of CC(=O)N1CCN(Cc2ccc([C@H](C)Nc3nccc(N4C(=O)OC[C@@H]4C(C)C)n3)cc2)CC1 , thanks.
6.47

----------
targetOrTestSystem: UniProt:O75874
assayComment: Binding affinity to recombinant IDH1 R132H mutant (unknown origin) expressed in Escherichia coli BL21(DE3) pLysS cells assessed as dissociation constant by NMR analysis
valueKind: Kd (µM)
The answer is to be given in µM; state only the numeric part.

Need Kd of CC(=O)N1CCN(Cc2ccc([C@H](C)Nc3nccc(N4C(=O)OC[C@@H]4C(C)C)n3)cc2)CC1 [US8957068, 556] , thanks.
1.1
